# System: Stomach
# Assay Protocol: Drug uptake in BALB/c mouse stomach implanted with mouse 4T1 cells assessed per gram of tissue at 0.18 mg/kg, ip after 24 hrs by HPLC-based fluorescence analysis
# Assay type: ADME, organism-based
# Measurement Setup: in vivo
Measurement Kind: Drug uptake (ng/g)
The reply should contain only the number, in ng/g.

Ask | Name the recorded Drug uptake of the item CN1CC2C3=N/C(=C(/c4c(F)c(F)c(S[C@@H]5O[C@H](CO)[C@@H](O)[C@H](O)[C@H]5O)c(F)c4F)C4=N/C(=C(/c5c(F)c(F)c(F)c(F)c5F)c5ccc([nH]5)/C(c5c(F)c(F)c(S[C@@H]6O[C@H](CO)[C@@H](O)[C@H](O)[C@H]6O)c(F)c5F)=C5/C=CC(=N5)C3c3c(F)c(F)c(F)c(F)c3F)C=C4)C2C1 (stereo partly specified) in your answer.
Reply | 31

* * *

# Test system: Lung
# Assay Protocol: Drug uptake in BALB/c mouse lung implanted with mouse 4T1 cells assessed per gram of tissue at 0.18 mg/kg, ip after 6 hrs by HPLC-based fluorescence analysis
# Assay type: ADME, organism-based
# Measurement Setup: in vivo
Measurement Kind: Drug uptake (ng/g)
The reply should contain only the number, in ng/g.

Ask | Give the observed Drug uptake of CN1CC2C3=N/C(=C(/c4c(F)c(F)c(S[C@@H]5O[C@H](CO)[C@@H](O)[C@H](O)[C@H]5O)c(F)c4F)C4=N/C(=C(/c5c(F)c(F)c(F)c(F)c5F)c5ccc([nH]5)/C(c5c(F)c(F)c(S[C@@H]6O[C@H](CO)[C@@H](O)[C@H](O)[C@H]6O)c(F)c5F)=C5/C=CC(=N5)C3c3c(F)c(F)c(F)c(F)c3F)C=C4)C2C1 (stereo partly specified) for Lung.
Reply | 70

* * *

# Test system: Urinary bladder
# Assay Protocol: Drug uptake in BALB/c mouse bladder implanted with mouse 4T1 cells assessed per gram of tissue at 0.18 mg/kg, ip after 6 hrs by HPLC-based fluorescence analysis
# Assay type: ADME, organism-based
# Measurement Setup: in vivo
Measurement Kind: Drug uptake (ng/g)
The reply should contain only the number, in ng/g.

Ask | Name the recorded Drug uptake of the item CN1CC2C3=N/C(=C(/c4c(F)c(F)c(S[C@@H]5O[C@H](CO)[C@@H](O)[C@H](O)[C@H]5O)c(F)c4F)C4=N/C(=C(/c5c(F)c(F)c(F)c(F)c5F)c5ccc([nH]5)/C(c5c(F)c(F)c(S[C@@H]6O[C@H](CO)[C@@H](O)[C@H](O)[C@H]6O)c(F)c5F)=C5/C=CC(=N5)C3c3c(F)c(F)c(F)c(F)c3F)C=C4)C2C1 (stereo partly specified) in your answer.
Reply | 90

* * *

# Test system: Heart
# Assay Protocol: Drug uptake in BALB/c mouse heart implanted with mouse 4T1 cells assessed per gram of tissue at 0.18 mg/kg, ip after 6 hrs by HPLC-based fluorescence analysis
# Type: ADME, organism-based
# Measurement Setup: in vivo
Measurement Kind: Drug uptake
# answer = value followed by unit

Ask | Name the recorded Drug uptake of the item CN1CC2C3=N/C(=C(/c4c(F)c(F)c(S[C@@H]5O[C@H](CO)[C@@H](O)[C@H](O)[C@H]5O)c(F)c4F)C4=N/C(=C(/c5c(F)c(F)c(F)c(F)c5F)c5ccc([nH]5)/C(c5c(F)c(F)c(S[C@@H]6O[C@H](CO)[C@@H](O)[C@H](O)[C@H]6O)c(F)c5F)=C5/C=CC(=N5)C3c3c(F)c(F)c(F)c(F)c3F)C=C4)C2C1 (stereo partly specified) in your answer.
Reply | 24 ng/g
